Values from paper PMC10295546

// reported IC50 per item
- Test system: HT-29 cells
- Assay Explanation: MTT cell viability assay, HT-29
- Assay type: cell-based, human
- Measurement Context: Homo sapiens; HT-29, 48 h, MTT

Compound	Test System	IC50
COC(=O)C12CCC(C)(C)CC1C1=CCC3C4(C)CCC(OC(=O)CCC(=O)Oc5ccc(/C=C/c6cc(/C=C/c7ccc(O)c(OC)c7)no6)cc5OC)C(C)(C)C4CCC3(C)C1(C)CC2 (stereo not shown)	HT-29 cells	> 100 µM
COc1cc(/C=C/C(=O)CC(=O)/C=C/c2ccc(O)c(OC)c2)ccc1O	HT-29 cells	13.9 µM
COC(=O)C12CCC(C)(C)CC1C1=CCC3C4(C)CCC(OC(=O)CCC(=O)Oc5ccc(/C=C/C(O)=C/C(=O)/C=C/c6ccc(O)c(OC)c6)cc5OC)C(C)(C)C4CCC3(C)C1(C)CC2 (stereo not shown)	HT-29 cells	> 100 µM
COc1cc(/C=C/C(=O)/C=C(O)/C=C/c2ccc(OC(=O)CCC(=O)OC3CCC4(C)C(CCC5(C)C4CC=C4C6CC(C)(C)CCC6(C(=O)O)CCC45C)C3(C)C)c(OC)c2)ccc1O (stereo not shown)	HT-29 cells	> 100 µM
COc1cc(/C=C/c2cc(/C=C/c3ccc(OC(=O)CCC(=O)OC4CCC5(C)C(CCC6(C)C5CC=C5C7CC(C)(C)CCC7(C(=O)O)CCC56C)C4(C)C)c(OC)c3)on2)ccc1O (stereo not shown)	HT-29 cells	23.2 µM
COc1cc(/C=C/c2cc(/C=C/c3ccc(OC(=O)CCC(=O)OC4CCC5(C)C(CCC6(C)C5CC=C5C7CC(C)(C)CCC7(C(=O)O)CCC56C)C4(C)C)c(OC)c3)[nH]n2)ccc1O (stereo not shown)	HT-29 cells	51.9 µM
COC(=O)C12CCC(C)(C)CC1C1=CCC3C4(C)CCC(OC(=O)CCC(=O)Oc5ccc(/C=C/c6cc(/C=C/c7ccc(O)c(OC)c7)n[nH]6)cc5OC)C(C)(C)C4CCC3(C)C1(C)CC2 (stereo not shown)	HT-29 cells	17.9 µM

----------
- Tested on: MCF-12A cells
- Assay Explanation: MTT cell viability assay, non-tumorigenic MCF-12A
- Type: cell-based, human
- Measurement Context: Homo sapiens; MCF-12A, 48 h, MTT
// reported IC50 per item

Molecule	Comparison Sign	IC50 [µM]
COc1cc(/C=C/C(=O)CC(=O)/C=C/c2ccc(O)c(OC)c2)ccc1O [KS2, curcumin]	=	46.4
COC(=O)C12CCC(C)(C)CC1C1=CCC3C4(C)CCC(OC(=O)CCC(=O)Oc5ccc(/C=C/c6cc(/C=C/c7ccc(O)c(OC)c7)n[nH]6)cc5OC)C(C)(C)C4CCC3(C)C1(C)CC2 (stereo not shown) [KS8]	=	43.4
COc1cc(/C=C/c2cc(/C=C/c3ccc(OC(=O)CCC(=O)OC4CCC5(C)C(CCC6(C)C5CC=C5C7CC(C)(C)CCC7(C(=O)O)CCC56C)C4(C)C)c(OC)c3)[nH]n2)ccc1O (stereo not shown) [KS6]	=	54.3
COC(=O)C12CCC(C)(C)CC1C1=CCC3C4(C)CCC(OC(=O)CCC(=O)Oc5ccc(/C=C/C(O)=C/C(=O)/C=C/c6ccc(O)c(OC)c6)cc5OC)C(C)(C)C4CCC3(C)C1(C)CC2 (stereo not shown) [KS3]	>	100
COC(=O)C12CCC(C)(C)CC1C1=CCC3C4(C)CCC(OC(=O)CCC(=O)Oc5ccc(/C=C/c6cc(/C=C/c7ccc(O)c(OC)c7)no6)cc5OC)C(C)(C)C4CCC3(C)C1(C)CC2 (stereo not shown) [KS7]	>	100
COc1cc(/C=C/C(=O)/C=C(O)/C=C/c2ccc(OC(=O)CCC(=O)OC3CCC4(C)C(CCC5(C)C4CC=C4C6CC(C)(C)CCC6(C(=O)O)CCC45C)C3(C)C)c(OC)c2)ccc1O (stereo not shown) [KS4]	>	100
COc1cc(/C=C/c2cc(/C=C/c3ccc(OC(=O)CCC(=O)OC4CCC5(C)C(CCC6(C)C5CC=C5C7CC(C)(C)CCC7(C(=O)O)CCC56C)C4(C)C)c(OC)c3)on2)ccc1O (stereo not shown) [KS5]	=	68.7

----------
- System: HeLaWT cells
- Assay Explanation: MTT cell viability assay, HeLaWT
- Format: cell-based, human
- Measurement Context: Homo sapiens, 24 h
- Method: The assay was performed as previously described.
pIC50: −log10 of the molar value.

Compound	Comparison Sign	pIC50
COc1cc(/C=C/c2cc(/C=C/c3ccc(OC(=O)CCC(=O)OC4CCC5(C)C(CCC6(C)C5CC=C5C7CC(C)(C)CCC7(C(=O)O)CCC56C)C4(C)C)c(OC)c3)[nH]n2)ccc1O (stereo not shown)	=	4.11
COC(=O)C12CCC(C)(C)CC1C1=CCC3C4(C)CCC(OC(=O)CCC(=O)Oc5ccc(/C=C/c6cc(/C=C/c7ccc(O)c(OC)c7)no6)cc5OC)C(C)(C)C4CCC3(C)C1(C)CC2 (stereo not shown)	<	4.00
COc1cc(/C=C/c2cc(/C=C/c3ccc(OC(=O)CCC(=O)OC4CCC5(C)C(CCC6(C)C5CC=C5C7CC(C)(C)CCC7(C(=O)O)CCC56C)C4(C)C)c(OC)c3)on2)ccc1O (stereo not shown)	=	4.15
COc1cc(/C=C/C(=O)CC(=O)/C=C/c2ccc(O)c(OC)c2)ccc1O	=	4.24
COC(=O)C12CCC(C)(C)CC1C1=CCC3C4(C)CCC(OC(=O)CCC(=O)Oc5ccc(/C=C/C(O)=C/C(=O)/C=C/c6ccc(O)c(OC)c6)cc5OC)C(C)(C)C4CCC3(C)C1(C)CC2 (stereo not shown)	<	4.00
COc1cc(/C=C/C(=O)/C=C(O)/C=C/c2ccc(OC(=O)CCC(=O)OC3CCC4(C)C(CCC5(C)C4CC=C4C6CC(C)(C)CCC6(C(=O)O)CCC45C)C3(C)C)c(OC)c2)ccc1O (stereo not shown)	<	4.00
COC(=O)C12CCC(C)(C)CC1C1=CCC3C4(C)CCC(OC(=O)CCC(=O)Oc5ccc(/C=C/c6cc(/C=C/c7ccc(O)c(OC)c7)n[nH]6)cc5OC)C(C)(C)C4CCC3(C)C1(C)CC2 (stereo not shown)	=	4.27
